# credit: ChEMBL document CHEMBL1144653

test system: Streptomyces natalensis; experiment: Ratio of Kcat to Km in pimaricin thioesterase expressed in Escherichia coli
Overview of recorded kcat/Km for various compounds
Expressed in M⁻¹ s⁻¹, but write only the number.

Use these answered entries as a reference point.
1. CC/C=C(\C)C(=O)SCCNC(C)=O :: 1.3
2. CC[C@H](O)[C@@H](C)C(=O)SCCNC(C)=O :: 0.02
3. CCCC(C)C(=O)SCCNC(C)=O (centres undefined) :: 0.24

Here is another compound to look at.
Quick check: kcat/Km of CC[C@@H](O)[C@H](C)C(=O)SCCNC(C)=O ?
0.04

* * *

system: Saccharopolyspora erythraea; assay: Ratio of Kcat to Km in 6-deoxyerythronolide B polyketide synthase thioesterase expressed in Escherichia coli
Overview of recorded kcat/Km for various molecules
Expressed in M⁻¹ s⁻¹, but write only the number.

1. CC[C@H](O)[C@@H](C)C(=O)SCCNC(C)=O :: 3.6
2. CC[C@@H](O)[C@H](C)C(=O)SCCNC(C)=O :: 0.47
3. CCC(=O)C(C)C(=O)SCCNC(C)=O (centres undefined) :: 4.2

Quick check: kcat/Km of CCCC(C)C(=O)SCCNC(C)=O (centres undefined) ?
0.17
